biological target: Full-length glucokinase (beta cell isoform) (Homo sapiens, UniProt P35557); construct: Full-length glucokinase (beta cell isoform) was His-tagged at N-terminus; His tag (N); made in house; experiment: Glucokinase biochemical assay (PK/LDH-coupled, NADH depletion at 340 nm): % activation, EC50, % max activation; conditions: 5 mM glucose; GK activation; read-out: EC50
Property: EC50 (nM)

I: CCNC(=O)c1ccc(Oc2cc(C(=O)Nc3ccn(C)n3)cc3c2CC(C)(C)O3)cn1
II: COCc1cc2c(Oc3ccc(S(C)(=O)=O)cc3)cc(C(=O)Nc3cnc(N(C)C)cn3)cc2o1
Q) Record comparison, field EC50: mark the lower of I and II . Response format: the label of the selected entry.
A) I

P: CN(C)C(=O)c1ccc(Oc2cc(C(=O)Nc3ccn(C)n3)cc3c2CC(C)(C)O3)cc1
Q: Cc1ccc(NC(=O)c2cc(Oc3ccc(S(=O)(=O)N(C)C)cc3)c3c(c2)OC(C)(C)C3)nc1
R: CN(C)Cc1ccc(Oc2cc(C(=O)Nc3ccn(C)n3)cc3c2CC(C)(C)O3)c(F)c1
Q) Sort the compounds on EC50; start with the lowest figure. Hello, could you send the labels back in the order asked? Thank you.
A) Q, P, R

A: COCC1(C)Cc2c(Oc3ccc(S(C)(=O)=O)cc3)cc(C(=O)Nc3ccc(C)cn3)cc2O1 (centres unmarked)
B: CN1CCN(C(=O)c2ccc(Oc3cc(C(=O)Nc4ccn(C)n4)cc4c3CC(C)(C)O4)c(F)c2)CC1
Q) Pick the one with the larger EC50: A vs B Response format: the label of the selected entry.
A) B
(B: 2300 nM, A: 100 nM)

====

Target: Full-length glucokinase (beta cell isoform) (Homo sapiens, UniProt P35557)
Construct: Full-length glucokinase (beta cell isoform) was His-tagged at N-terminus; His tag (N); made in house
Sequence (P35557 1-465): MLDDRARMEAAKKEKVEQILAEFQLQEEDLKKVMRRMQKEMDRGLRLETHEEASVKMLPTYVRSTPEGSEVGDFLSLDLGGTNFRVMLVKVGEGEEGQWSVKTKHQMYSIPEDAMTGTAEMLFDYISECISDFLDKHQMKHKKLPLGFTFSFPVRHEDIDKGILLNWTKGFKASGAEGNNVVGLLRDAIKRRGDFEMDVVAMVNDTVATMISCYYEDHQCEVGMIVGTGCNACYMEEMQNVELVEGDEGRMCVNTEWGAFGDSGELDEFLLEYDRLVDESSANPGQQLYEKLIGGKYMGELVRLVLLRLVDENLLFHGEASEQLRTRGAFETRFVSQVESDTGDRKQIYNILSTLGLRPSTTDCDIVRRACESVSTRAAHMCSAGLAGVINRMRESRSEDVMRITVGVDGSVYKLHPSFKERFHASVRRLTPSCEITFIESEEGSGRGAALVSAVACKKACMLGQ
Assay: Glucokinase biochemical assay (PK/LDH-coupled, NADH depletion at 340 nm): % activation, EC50, % max activation
Conditions: 5 mM glucose; GK activation; read-out: EC50
Property: EC50 (nM)

Recorded EC50, per entry:
>  <Molecule>
COCC1(C)Cc2c(Oc3ccc(S(C)(=O)=O)c(F)c3)cc(C(=O)Nc3ccn(C)n3)cc2O1 (stereo not drawn)

>  <Measurement>
98

$$$$
>  <Molecule>
CN(C)C(=O)c1ncc(Oc2cc(C(=O)Nc3ccn(C)n3)cc3c2CC(C)(C)O3)cc1F

>  <Measurement>
90

$$$$
>  <Molecule>
COCC1Cc2c(Oc3ccc(C(=O)N(C)C)c(F)c3)cc(C(=O)Nc3ccn(C)n3)cc2O1 (single isomer, unassigned; (+)) [Example 207]

>  <Measurement>
950

$$$$
>  <Molecule>
Cn1ccc(NC(=O)c2cc(OCc3noc(C(C)(C)C)n3)c3c(c2)OC(C)(C)C3)n1

>  <Measurement>
3500

$$$$
>  <Molecule>
COCCNC(=O)c1ccc(Oc2cc(C(=O)Nc3ccn(C)n3)cc3c2CC(C)(C)O3)cc1F

>  <Measurement>
660

$$$$
>  <Molecule>
Cn1ccc(NC(=O)c2cc(Oc3ccc(S(C)(=O)=O)cc3)c3c(c2)OC(C(F)F)C3)n1 (stereo not drawn)

>  <Measurement>
2930

$$$$
>  <Molecule>
Cn1ccc(NC(=O)c2cc(Oc3ccc(C(=O)N4CCOCC4)cc3)c3c(c2)OC(C)(C)C3)n1

>  <Measurement>
1050

$$$$
>  <Molecule>
Cn1ccc(NC(=O)c2cc(Oc3ccc(S(C)(=O)=O)cc3)c3cc(C(F)F)oc3c2)n1

>  <Measurement>
6300

$$$$
>  <Molecule>
CC(C)COc1cc(C(=O)Nc2ccc(C(=O)O)cn2)cc2c1CC(C)(C)O2

>  <Measurement>
1300

$$$$
>  <Molecule>
Cn1ccc(NC(=O)c2cc(Oc3ccc(S(=O)(=O)N4CCC4)cc3)c3c(c2)OC(C)(C)C3)n1

>  <Measurement>
46

$$$$

1: CC1Cc2c(Oc3ccc(S(C)(=O)=O)cc3)cc(C(=O)Nc3ccn(C)n3)cc2O1 (stereo not drawn) [Example 11]
2: CN(C)C(=O)c1ccc(Oc2cc(C(=O)Nc3ccccn3)cc3c2CC(C)(C)O3)cc1
Q) Pick the one with the larger EC50: 1 vs 2 Response format: the label of the selected entry.
A) 1
(1: 2000 nM, 2: 190 nM)
